Values from ChEMBL document CHEMBL1949618

Property: degraded at 24 h, 5000 µM; scope: individual compounds
EXPERIMENT SUMMARY: Chemical stability of the compound in aqueous buffer at pH 2 assessed as decomposition at 5 mM after 24 hrs by RP-HPLC
Type: physicochemical
CONDITION SUMMARY: read-out: Drug degradation

Example entries and their recorded answers appear below.
SMILES STRUCTURE: C[n+]1cn([C@@H]2O[C@H](COP(=O)([O-])NP(=O)([O-])OP(=O)([O-])OP(=O)([O-])OC[C@H]3O[C@@H](n4cnc5c(=O)[nH]c(N)nc54)[C@H](O)[C@@H]3O)[C@@H](O)[C@H]2O)c2nc(N)[nH]c(=O)c21.[Na+].[Na+].[Na+]
degraded at 24 h, 5000 µM: < 10%
//
SMILES STRUCTURE: CO[C@@H]1[C@H](O)[C@@H](COP(=O)([O-])NP(=O)([O-])OP(=O)([O-])OC[C@H]2O[C@@H](n3cnc4c(=O)[nH]c(N)nc43)[C@H](O)[C@@H]2O)O[C@H]1n1c[n+](C)c2c(=O)[nH]c(N)nc21.[Na+].[Na+]
degraded at 24 h, 5000 µM: < 10%
//
SMILES STRUCTURE: C[n+]1cn([C@@H]2O[C@H](COP(=O)([O-])NP(=O)(O)OP(=O)(O)OC[C@H]3O[C@@H](n4cnc5c(=O)[nH]c(N)nc54)[C@H](O)[C@@H]3O)[C@@H](O)[C@H]2O)c2nc(N)[nH]c(=O)c21.N.N
degraded at 24 h, 5000 µM: < 10%

# next compound below
In: For the compound shown here, `CO[C@@H]1[C@H](O)[C@@H](COP(=O)([O-])NP(=O)(O)OP(=O)(O)OP(=O)(O)OC[C@H]2O[C@@H](n3cnc4c(=O)[nH]c(N)nc43)[C@H](O)[C@@H]2O)O[C@H]1n1c[n+](C)c2c(=O)[nH]c(N)nc21.N.N.N` , give the reported degraded at 24 h, 5000 µM.
Out: < 10%
